Cited source: paper PMC9516332

Target: panel of 255 wild-type kinases (Homo sapiens, UniProt P30530)
Sequence (P30530 26-894): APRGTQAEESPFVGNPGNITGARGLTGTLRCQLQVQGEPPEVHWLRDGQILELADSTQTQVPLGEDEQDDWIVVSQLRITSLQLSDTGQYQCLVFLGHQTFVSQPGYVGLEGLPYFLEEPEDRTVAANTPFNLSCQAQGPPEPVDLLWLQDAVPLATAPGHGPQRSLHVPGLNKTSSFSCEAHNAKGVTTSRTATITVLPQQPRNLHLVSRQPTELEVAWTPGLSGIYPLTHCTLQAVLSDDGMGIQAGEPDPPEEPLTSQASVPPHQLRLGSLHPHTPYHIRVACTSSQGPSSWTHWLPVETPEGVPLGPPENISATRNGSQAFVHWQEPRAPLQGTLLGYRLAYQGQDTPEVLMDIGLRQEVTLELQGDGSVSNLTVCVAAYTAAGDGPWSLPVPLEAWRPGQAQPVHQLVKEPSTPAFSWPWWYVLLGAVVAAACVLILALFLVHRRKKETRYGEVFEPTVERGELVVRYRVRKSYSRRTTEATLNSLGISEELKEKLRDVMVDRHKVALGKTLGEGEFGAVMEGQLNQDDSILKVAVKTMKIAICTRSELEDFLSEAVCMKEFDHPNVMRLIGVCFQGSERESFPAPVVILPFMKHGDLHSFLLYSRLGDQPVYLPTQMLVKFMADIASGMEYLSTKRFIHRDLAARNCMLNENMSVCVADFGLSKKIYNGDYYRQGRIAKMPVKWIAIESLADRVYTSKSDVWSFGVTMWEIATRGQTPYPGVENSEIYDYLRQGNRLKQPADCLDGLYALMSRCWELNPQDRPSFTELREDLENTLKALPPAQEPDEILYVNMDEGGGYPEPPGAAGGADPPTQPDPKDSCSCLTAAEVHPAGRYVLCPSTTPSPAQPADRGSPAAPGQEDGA
Test: Kinase panel profiling at 1 µmol/L (MSA or IMAP), percentage inhibition
Format: biochemical
Conditions: AXL kinase assay; 1 µmol/L single concentration; read-out: %-inhibition AXL
quantity: inhibition at 1 µM (%)

smiles_entry=FC(F)(F)c1ccc(CNc2ccc(Cc3c[nH]c4ncc(Cl)cc34)cn2)cn1 measured_on="panel of 255 wild-type kinases (Homo sapiens, UniProt P30530)" unit_of_measurement=% result_value=39
smiles_entry=Cn1cnc2c(F)c(Nc3ccc(Br)cc3F)c(C(=O)NOCCO)cc21 measured_on="panel of 255 wild-type kinases (Homo sapiens, UniProt P30530)" unit_of_measurement=% result_value=-1.7
smiles_entry=CCN1CCN(c2ccc(Nc3cc(N(C)C(=O)Nc4c(Cl)c(OC)cc(OC)c4Cl)ncn3)cc2)CC1 measured_on="panel of 255 wild-type kinases (Homo sapiens, UniProt P30530)" unit_of_measurement=% result_value=30
smiles_entry=COc1cc2ncnc(Nc3ccc(F)c(Cl)c3)c2cc1NC(=O)/C=C/CN1CCCCC1 measured_on="panel of 255 wild-type kinases (Homo sapiens, UniProt P30530)" unit_of_measurement=% result_value=40
